property_name: melting point

# annotated cases, reported melting point shown
compound_structure_string=Nc1ccc(CCC(=O)Nc2ccc(Cl)cc2Cl)cc1N assay_value="149 to 150 °C"
compound_structure_string=CCOC(=O)c1c2n(c3cc(N4CCN(C(C)=O)CC4)c(Cl)cc3c1=O)CS2 assay_value="266 to 268 °C"

Proceed to the following item.
IN: Need melting point of `COc1ccc(CC(=O)c2c(O)c3cccnc3n(-c3ccccc3)c2=O)cc1OC` , thanks.
OUT: 161 to 163 °C

====

Quick reference for melting point among some molecules

molecule="CN(Cc1sc2c(=O)c(C(=O)NCc3ccc(Cl)cc3)cn(C)c2c1COCC[Si](C)(C)C)CC(O)c1cc2ccccc2o1 (stereo not given)" property_name="melting point" assay_value="157 to 159 °C"

IN: // query melting point value for entry CCCc1c(OCC(O)COc2ccc3c(=O)cc(CCC(=O)O)oc3c2CCC)ccc(C(C)=O)c1O (stereo not given)
OUT: 79 to 80 °C

IN: For the molecule shown here, `COc1ccc2c(c1)c(C(=O)N1CCN(C)CC1)c(N1CCNCC1)n2C` , give the reported melting point.
OUT: 124 to 125 °C

====

property_name: melting point

Look over these answered cases.
molecule=N#Cc1sc(-c2ccccc2)nc1N assay_value="178 to 179 °C"
molecule="CCC(C)(C)OC(=O)NC(C)(Cc1c[nH]c2ccccc12)C(=O)NCCc1cccnc1 (stereo not given)" assay_value="95 to 105 °C"
molecule=O=[N+]([O-])c1cc(CS(=O)(=O)CCO)ccc1CS(=O)(=O)CCO assay_value="125 to 126 °C"
molecule=CCN(C(=O)N1CCN(c2ccccc2OC)CC1)c1cc(C)c(C)nc1OC assay_value="112 to 113 °C"

For the next question, use this molecule.
IN: Request the reported melting point associated with `Cc1ccccc1C=CC(=O)OCCc1ccccc1`
OUT: 52 to 53 °C

====

Below is a list of entries, each paired with its recorded melting point value.

compound=S=C1Nc2ccccc2Cn2cccc21 assay_value="228 to 231 °C"
compound=Cc1cc(S(=O)(=O)NC(=O)c2cn3cc(C(F)(F)F)cc(Cl)c3n2)c(C)cc1C#N assay_value="228 to 229 °C"
compound=OC[C@H](O)CCOc1nc(N2CCNCC2)nc2ccccc12 assay_value="151 to 156 °C"
compound=CC(C)c1nc(CNS(C)(=O)=O)n(C)c1Sc1cc(Cl)cc(Cl)c1 assay_value="116 to 118 °C"
compound="CCOC(c1cccc2cccnc12)n1c(NC2CCN(C(CN)C(C)C)CC2)nc2ccccc21 (stereo unspecified)" assay_value="202 °C"
compound=CCc1c(Br)sc2[nH]c(=O)c(=O)[nH]c12 assay_value="295 to 297 °C"
compound=O=C(NCCCC[C@H](Nc1nc2ccc(Cl)cc2cc1C(=O)O)C(=O)O)OCc1ccccc1 assay_value="152 to 154 °C"
compound=Cc1nc2ncc(C(=O)NCc3ccc(Cl)cc3)c(O)c2cc1Br assay_value="269 to 270 °C"

IN: Tell me the measured melting point of `CCCCc1nc(Cl)c(CN2CCN(c3ccccc3OC)CC2)n1Cc1ccc(-c2ccccc2-c2nnn[nH]2)cc1` , please.
OUT: 154 to 158 °C

IN: Endpoint output: melting point of Cc1c(NS(=O)(=O)c2ccccc2)cc(C(C)(C)C)cc1SC1=C(O)CC(CCc2ccc(O)cc2)(C2CCCC2)OC1=O (racemic) . Value?
OUT: 125 to 127 °C

IN: What value of melting point has been recorded for this entry: `CCCCCn1c2ccc(CN3CCCCC3)cc2c2ccc(OC)cc21`
OUT: 64 to 65 °C

IN: Form field: reported melting point of `CC(C)(C)[Si](C)(C)OCCn1nc(C=O)cc1C=O`
OUT: 63 to 64 °C

IN: Requested read-out: melting point. Entry: `CC(=O)OCC(=O)NCCCn1c(-c2ccc(Br)cc2)csc1=Nc1ccccc1`
OUT: 156 to 159 °C

IN: Given `CCCCCN(C[C@H]1CC[C@H](CN(CCCCC)C(=O)Nc2ccc(N(C)C)cc2)CC1)C(=O)Nc1ccc(N(C)C)cc1` , state its recorded melting point.
OUT: 205 to 208 °C

====

property_name: melting point

Here's what some known entries look like.
molecule=CC1(CCO)c2ccccc2-c2ccccc21 assay_value="84 to 85 °C"
molecule="O=C1NC(=O)C(CCOc2ccccc2)S1 (stereo not given)" assay_value="81 to 83 °C"
molecule=CC1(C)CC(=NO)c2cc(F)ccc2O1 assay_value="108 to 110 °C"
molecule="CCOC1Nc2c(OC(C)=O)cccc2C(=O)N2CCCC12 (stereo not given)" assay_value="146 to 149 °C"
molecule="CC(Oc1ncn(-c2ccc(Br)cc2)n1)C(=O)NC1CC1 (stereo not given)" assay_value="170 to 172 °C"

IN: Entry under review: `O=c1[nH]c2ccc(Cl)cc2n2cc(-c3ccccc3)cc12` . Reported melting point?
OUT: 346 °C

IN: Would you mind telling me what melting point value was observed for `CCOc1ccc2[nH]c(C)cc2c1` ?
OUT: 76 to 77 °C

IN: Looking for the measured melting point of O=C(CCCCC1CCSS1)NO (stereo not given) , can you help?
OUT: 63 to 64 °C

IN: Value lookup for melting point; key = `COc1ccc(C(=O)Nc2ccc(C)cc2)cc1NC(=S)Nc1cc(Cl)cc(Cl)c1`
OUT: 178 to 180 °C

IN: Return reported melting point; argument: `Cc1[nH]c(C)c(-c2ccc(Oc3ccc(OC(F)(F)F)cc3)cc2)c(=O)c1Cl`
OUT: 298 to 302 °C

IN: Need melting point of O=C(O)C1Cc2cc(-c3ccccc3)ccc2O1 (stereo not given) , thanks.
OUT: 186 to 187 °C

IN: Look at this molecule and give its reported melting point. Cc1ccc(CC2CCC(C)(C)C2(O)Cn2cncn2)cc1 (stereo not given)
OUT: 118 to 120 °C

====

# melting point values compiled below

Use these answered entries as a reference point.
compound=Cc1c(CNCC(C)(C)C)n(C)c2ccc(NC(=O)c3ccc(OC[C@@H]4CCCO4)cc3)cc12 assay_value="165 to 166 °C"
compound="Cc1cccc(NCC(C)Br)c1C (centres undefined)" assay_value="55 to 58 °C"
compound=COC(=O)c1cc(Oc2ccnc(Cl)c2)cc2ccccc12 assay_value="103 to 104 °C"
compound=C=CCON=Cc1nc(-c2ccc(Cl)c(Cl)c2Cl)cn1S(=O)(=O)N(C)C assay_value="87 to 88 °C"

Let us examine a further case.
IN: Suppose we examine the compound `COc1ccc(N2CCN(c3ccc(NC4=NC(C)(C)CS4)cc3)CC2)cc1` ; what melting point value has been reported?
OUT: 232 °C

====

property_name: melting point

Answered examples (4):
compound=CCCc1nc2c(N)nc(C)c(C)c2n1C1(OC)CCCCC1 assay_value="192 to 193 °C"
compound="CCCCCCCCc1ccc2nc(-c3ccc(COC(CCCCCC)C(F)(F)F)cc3)sc2c1 (stereo not drawn)" assay_value="37.2 °C"
compound=OCCNC(=S)Nc1cccc2ccoc12 assay_value="138 to 139 °C"
compound=Cc1cc(C)c2nc(NC3CCN(CCC(N)=O)CC3)n(Cc3nc(C)ccc3O)c2c1 assay_value="212 °C"

IN: Reported melting point for `Fc1ccc(OCCCCN2CCC(NC3=Nc4ccccc4CS3)CC2)cc1` : what is it?
OUT: 133 °C

IN: Endpoint output: melting point of `COc1ccc2c(c1)c(CC(=O)O)c(C)n2CC1CCCCC1` . Value?
OUT: 173 to 175 °C

IN: Look up melting point for this compound: `O=c1[nH]c2ccc(I)cc2c(=O)n1-c1ccc(Cl)cc1`
OUT: 324 to 326 °C

IN: Given the compound `O=C(O)CCc1cc2cc(Cl)ccc2n1S(=O)(=O)c1ccc2ncsc2c1` , what is its reported melting point?
OUT: 96 to 100 °C

IN: Fill in the blank: the reported melting point of `O=c1[nH]c(C2CCNCC2)nc2ccccc12` is ____.
OUT: 244 to 245 °C

IN: So what does the record say about melting point for CCCc1nc(C(O)CCC)c(C)[nH]1 (stereo not drawn) ?
OUT: 169 to 171 °C

IN: What does the data say about its melting point? Entry: `O=c1ncc(Br)cn1CCO`
OUT: 177 to 179 °C

IN: Given the entry `Nc1sc2c(c1C(=O)c1ccc3ccccc3c1)CCN(Cc1ccc(F)cc1)C2` , report its measured melting point.
OUT: 94 to 96 °C

IN: Could you share which melting point value was measured for `O=C(NCc1ccc(Cl)cc1)c1cnc2sc(CO)cc2c1O` ?
OUT: 205 to 210 °C

IN: Item under review: `Cc1cc(N2CC=C(C(=O)OC(C)C)CC2)c2cccc(-c3ccc(Cl)cc3Cl)c2n1` . Reported melting point?
OUT: 131 to 133 °C

IN: Consider the compound shown here: `CN1C(=O)c2ccccc2C[C@H]1C(=O)O` What is its recorded melting point?
OUT: 173 to 175 °C

IN: Query: melting point; subject: `CC(C)c1ccc(N(C=O)C(=O)N(C)C)cc1`
OUT: 30 to 32 °C
